Give IC50 for every item shown.
test system: 361931-004-R-J1-PDC multicell spheroid viability; test: Anticancer human tumor 361931-004-R-J1-PDC patient-derived colon adenocarcinoma cell line growth inhibition [PI3K]; conditions: curve of first compound; second compound 10 µM

The following molecules have reported results that may help.
C#Cc1c(F)ccc2cc(O)cc(-c3ncc4c(N5CC6CCC(C5)N6)nc(OCC56CCCN5CC(F)C6)nc4c3F)c12 (centres undefined) + CC(Nc1ncnc2nc[nH]c12)c1cc2cccc(Cl)c2c(=O)n1-c1ccccc1    > 10 µM
Cn1ncnc1[C@H]1c2n[nH]c(=O)c3cc(F)cc(c23)N[C@@H]1c1ccc(F)cc1 + CC(Nc1ncnc2nc[nH]c12)c1cc2cccc(Cl)c2c(=O)n1-c1ccccc1    > 0.1 µM

Value sought for every listed molecule: IC50.
1. CC(Cn1ccc(-c2ccc(C#N)c(Cl)c2)n1)NC(=O)c1cc(C(C)O)[nH]n1 (centres undefined) + Cc1nc(NC(=O)N2CCCC2C(N)=O)sc1-c1ccnc(C(C)(C)C(F)(F)F)c1
2. C[C@@H](NC(=O)c1ncnc(N)c1Cl)c1ncc(C(=O)Nc2cc(C(F)(F)F)c(Cl)cn2)s1 + CC(Nc1ncnc2nc[nH]c12)c1cc2cccc(Cl)c2c(=O)n1-c1ccccc1

Result string:
> 10 µM
> 10 µM

* * *

test system: 361931-004-R-J1-PDC multicell spheroid viability; experiment: Anticancer human tumor 361931-004-R-J1-PDC cell line growth inhibition [PI3K]; conditions: second compound 10 µM; first compound 0.0316 µM; stronger effect = lower value;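 further: spheroids exposed to agents for seven days before readout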
Answer each item with its documented viability, T/C.

Study these solved cases before continuing.
CC1(C)CCC(Nc2ncc(C(F)(F)F)c(-c3c[nH]c4c(P(C)(C)=O)c(C#N)ccc34)n2)CN1 (centres undefined) + Cc1nc(NC(=O)N2CCCC2C(N)=O)sc1-c1ccnc(C(C)(C)C(F)(F)F)c1    49.1%
C#Cc1c(F)ccc2cc(O)cc(-c3ncc4c(N5CC6CCC(C5)N6)nc(OCC56CCCN5CC(F)C6)nc4c3F)c12 (centres undefined) + CC(Nc1ncnc2nc[nH]c12)c1cc2cccc(Cl)c2c(=O)n1-c1ccccc1    104%
CC(Cn1ccc(-c2ccc(C#N)c(Cl)c2)n1)NC(=O)c1cc(C(C)O)[nH]n1 (centres undefined) + CC(Nc1ncnc2nc[nH]c12)c1cc2cccc(Cl)c2c(=O)n1-c1ccccc1    105%

Shift focus to the following entry.
Sure, the documented viability, T/C for CNC(=O)c1ccc(N2C(=S)N(c3ccc(C#N)c(C(F)(F)F)c3)C(=O)C2(C)C)cc1F + CC(Nc1ncnc2nc[nH]c12)c1cc2cccc(Cl)c2c(=O)n1-c1ccccc1 is 107%

* * *

Please respond with reported viability, T/C for every item in the list.
tested on: 361931-004-R-J1-PDC multicell spheroid viability; test: Anticancer human tumor 361931-004-R-J1-PDC cell line growth inhibition [PI3K]; conditions: second compound 0.0316 µM; first compound 0.316 µM; stronger effect = lower value;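 further: spheroids exposed to agents for seven days before readout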
Give bare numbers, in %.

Worked set:
Cn1ncc(Cl)c1-c1cc(C(=O)NC(CN)Cc2cccc(F)c2)sc1Cl (stereo not drawn) + CC(Nc1ncnc2nc[nH]c12)c1cc2cccc(Cl)c2c(=O)n1-c1ccccc1    88.7
C#Cc1c(F)ccc2cc(O)cc(-c3ncc4c(N5CC6CCC(C5)N6)nc(OCC56CCCN5CC(F)C6)nc4c3F)c12 (stereo not drawn) + Cc1nc(NC(=O)N2CCCC2C(N)=O)sc1-c1ccnc(C(C)(C)C(F)(F)F)c1    91.6

Let us move to another entry and its viability, T/C.
viability, T/C of CNC(=O)c1ccc(N2C(=S)N(c3ccc(C#N)c(C(F)(F)F)c3)C(=O)C2(C)C)cc1F + COc1c(OCCCN2CCOCC2)ccc2c3n(c(=NC(=O)c4cnc(N)nc4)nc12)CCN3 , assay on 361931-004-R-J1-PDC multicell spheroid viability, is 91.7
